assay: Pharmacokinetics of baicalin in rats (plasma Cmax); format: in vivo; details: Sprague Dawley, rat, iv, baicalin 0.225 g/kg i.v., read-out: C max of baicalin
measuredAttribute: Cmax
// unit must come after the numeric part

Task: Return the recorded Cmax value; entry: O=C(O)[C@H]1O[C@@H](Oc2cc3oc(-c4ccccc4)cc(=O)c3c(O)c2O)[C@H](O)[C@@H](O)[C@@H]1O [baicalin, 5,6-Dihydroxy-flavone-7-O-glucuronide]
Result: 755 µg/mL
